Biological target: Human immunodeficiency virus type 1 integrase (Human immunodeficiency virus 1)
Sequence (Q7ZJM1 whole entry): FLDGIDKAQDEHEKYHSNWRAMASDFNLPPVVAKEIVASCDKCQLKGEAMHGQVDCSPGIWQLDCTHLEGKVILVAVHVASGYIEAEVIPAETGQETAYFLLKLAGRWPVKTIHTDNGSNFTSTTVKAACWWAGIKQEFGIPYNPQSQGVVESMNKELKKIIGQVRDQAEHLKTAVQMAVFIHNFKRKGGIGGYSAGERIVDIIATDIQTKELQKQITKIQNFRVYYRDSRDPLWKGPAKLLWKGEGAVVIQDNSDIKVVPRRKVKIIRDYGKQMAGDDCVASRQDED
measurement_kind: pIC50
Units for pIC50: none; it is -log10 of a concentration expressed in mol/L.

Recorded pIC50, per entry:
compound | experimental_system | pIC50
O=c1c(O)cccc2cc(O)c(O)c(O)c12 [PURPUROGALLIN] | Human immunodeficiency virus type 1 integrase (Human immunodeficiency virus 1) | 5.68
N#C/C(=C\c1ccc(O)c(O)c1)C(=O)NCCCNC(=O)/C(C#N)=C/c1ccc(O)c(O)c1 | Human immunodeficiency virus type 1 integrase (Human immunodeficiency virus 1) | 5.00

// query GET /values?readout=pIC50&system=Human immunodeficiency virus type 1 integrase (Human immunodeficiency virus 1)&item= Cc1cccc2c1C(O)=C1C(=O)C3C(O)=C(C(=O)NCN4CCN(C(=N)N=C(N)N)CC4)C(=O)[C@@H](N(C)C)[C@@H]3C[C@@H]1C2(C)O (stereo not given in full)
// result 6.05

// query GET /values?readout=pIC50&system=Human immunodeficiency virus type 1 integrase (Human immunodeficiency virus 1)&item= COC1/C=C/OC2(C)Oc3c(C)c(O)c4c(O)c(c(C=NN5C(C)CN(Cc6ccc([N+](=O)[O-])cc6)CC5C)c(O)c4c3C2=O)NC(=O)/C(C)=C\C=C\C(C)C(O)C(C)C(O)C(C)C(OC(C)=O)C1C (stereo not given)
// result 4.69

// query GET /values?readout=pIC50&system=Human immunodeficiency virus type 1 integrase (Human immunodeficiency virus 1)&item= O=C(/C=C\c1ccc(O)c(O)c1)OC1CC(OC(=O)/C=C\c2ccc(O)c(O)c2)(C(=O)O)CC(O)C1O (stereo not given);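 further: measured as inhibition of the 3'-processing step of HIV-1 integrase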
// result 6.17
